- System: Pseudomonas aeruginosa
- ASSAY NOTES: Antibacterial activity against Pseudomonas aeruginosa at 0.5 mg/ml incubated for 18 hrs by well plate technique
- Format: functional
- EXPERIMENTAL CONTEXT: read-out: DIZ
Overview of reported zone of inhibition at 500 µg/mL across a group of compounds:
Give the value in mm but do not write mm after it.

Below, each entry is followed by its recorded zone of inhibition at 500 µg/mL result.
Cc1nn2c(-c3nc4ccccc4[nH]3)c(-c3ccc(F)cc3)nc2s1	2
Fc1ccc(-c2nc3sc(-c4ccc(Cl)cc4)nn3c2-c2nc3ccccc3[nH]2)cc1	5

Pending compound:
Notebook entry, Pseudomonas aeruginosa assay: zone of inhibition at 500 µg/mL of CN[C@@H]1[C@H](O[C@H]2[C@H](O[C@H]3[C@H](O)[C@@H](O)[C@H](N=C(N)N)[C@@H](O)[C@@H]3N=C(N)N)O[C@@H](C)[C@]2(O)C=O)O[C@@H](CO)[C@H](O)[C@H]1O [STREPTOMYCIN] = ?
13.6
